Target: feline FcRn complex (FcRn-α subunit and β-microglobulin), biotin labeled (feline)
Assay: SPR, pH 6
pKd: −log10 of the molar value.
MEASURED_ENDPOINT: pKd

1) feline IgG1a T256P (antibody, part only; not given: Variable domains, not shown: another chain or arm of the molecule) constant: ASTTAPSVFPLAPSCGTTSGATVALACLVLGYFPEPVTVSWNSGALTSGVHTFPAVLQASGLYSLSSMVTVPSSRWLSDTFTCNVAHPPSNTKVDKTVRKTDHPPGPKPCDCPKCPPPEMLGGPSIFIFPPKPKDTLSISRPPEVTCLVVDLGPDDSDVQITWFVDNTQVYTAKTSPREEQFNSTYRVVSVLPILHQDWLKGKEFKCKVNSKSLPSPIERTISKAKGQPHEPQVYVLPPAQEELSRNKVSVTCLIKSFHPPDIAVEWEITGQPEPENNYRTTPPQLDSDGTYFVYSKLSVDRSHWQRGNTYTCSVSHEALHSHHTQKSLTQSPGK | 7.24
